assay: MTT assay of viability and metabolic activity of ex vivo human skin explants after topical application; type: cell-based; settings: ex vivo human skin explants (5 mm); ex vivo human skin 5 mm explants, 48 hours post treatment, 37° C., compared to the untreated skin control, n=3

[
  {
    "compound": "CCCCCCCCCCCCOS(=O)(=O)[O-].[Na+] [SDS, sodium dodecyl sulfate]",
    "viability at 48 h": "< 10%"
  }
]

These entries and their values trace back to patent US20240148762A1.
